Origin of values: patent US7041458B2

Could you please report measured IC50 for the items listed next?
# test_target: protein S-C4BP interaction (Homo sapiens)
# Construct: C4BPβ was first isolated from human plasma in the form of the protein S-C4BP complex; from tissue; host or cells: human plasma
# method_summary: Peptide inhibition of the protein S-C4BP interaction in microtiter plates (equilibrium binding assay, 125I-labelled protein S tracer, immobilized C4BP)
# test_settings: displacement of 125I-labelled protein S from immobilized C4BP, EDTA buffer; read-out: half-maximum inhibition
Where no end group is shown, it is not given here.

So what does the record say about IC50 for EKGSYYPGSGIAQFHIDYNNVS [SL2] ?
100 to 200 µM

So what does the record say about IC50 for LVTVEKGSYYPGSGIAQFHIDYNNVSSAEGWHVN [SL7] ?
100 to 200 µM

So what does the record say about IC50 for SGIAQFHIDYNNVSSAEGWHVN [SL6] ?
100 to 200 µM

----------
Could you please report measured IC50 for the items listed next?
# test_target: protein S-C4BP interaction (Homo sapiens)
# Construct: C4BPβ was first isolated from human plasma in the form of the protein S-C4BP complex; from tissue; host or cells: human plasma
# Sequence (P20851 18-252): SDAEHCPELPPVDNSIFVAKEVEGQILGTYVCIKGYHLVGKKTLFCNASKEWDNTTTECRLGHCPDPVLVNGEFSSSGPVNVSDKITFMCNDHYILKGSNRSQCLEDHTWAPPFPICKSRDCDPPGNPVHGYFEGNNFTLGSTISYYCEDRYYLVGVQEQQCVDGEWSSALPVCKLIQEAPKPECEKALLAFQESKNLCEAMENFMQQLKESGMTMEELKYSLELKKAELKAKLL
# Sequence (P04003 49-597 partner): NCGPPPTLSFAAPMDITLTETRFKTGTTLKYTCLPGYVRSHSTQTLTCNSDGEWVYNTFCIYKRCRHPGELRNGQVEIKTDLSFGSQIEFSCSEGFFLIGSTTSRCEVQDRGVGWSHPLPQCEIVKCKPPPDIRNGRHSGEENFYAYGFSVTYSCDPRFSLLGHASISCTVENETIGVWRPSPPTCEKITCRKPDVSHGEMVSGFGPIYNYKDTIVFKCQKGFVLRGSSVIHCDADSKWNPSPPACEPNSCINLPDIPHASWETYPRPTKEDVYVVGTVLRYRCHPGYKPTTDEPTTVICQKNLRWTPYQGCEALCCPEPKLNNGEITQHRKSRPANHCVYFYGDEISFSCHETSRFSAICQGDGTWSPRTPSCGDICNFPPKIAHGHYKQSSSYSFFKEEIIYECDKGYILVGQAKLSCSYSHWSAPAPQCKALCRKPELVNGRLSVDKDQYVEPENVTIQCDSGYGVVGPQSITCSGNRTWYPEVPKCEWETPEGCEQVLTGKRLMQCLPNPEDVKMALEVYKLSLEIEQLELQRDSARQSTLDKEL
# method_summary: Peptide inhibition of the protein S-C4BP interaction by surface plasmon resonance (BIAcore, immobilized C4BP)
# Assay type: binding
# test_settings: 50 nM human protein S, immobilized C4BP; read-out: half maximum inhibition, peptide concentration
Where no end group is shown, it is not given here.

Requested read-out IC50, target or system protein S-C4BP interaction (Homo sapiens), entry SGIAQFHIDYNNVSSAEGWHVN [SL6]
30 to 120 µM

Requested read-out IC50, target or system protein S-C4BP interaction (Homo sapiens), entry EKGSYYPGSGIAQFHIDYNNVS [SL2]
30 to 120 µM

Requested read-out IC50, target or system protein S-C4BP interaction (Homo sapiens), entry LVTVEKGSYYPGSGIAQFHIDYNNVSSAEGWHVN [SL7]
30 to 120 µM
